// IC50 or % Inhibition Factor Xa (30 µM) collected for Human factor Xa (Homo sapiens)
Answers are plain numbers, in %.

Consider the worked cases shown below.
COc1cccc(CNc2nc(Cl)c(-c3ccccc3)n(CC(=O)NCc3ccc(C(=N)N)cc3)c2=O)c1OC; 3
N=C(N)c1ccc(CNC(=O)C(Cc2ccccc2)n2c(-c3ccccc3)c(Cl)nc(NC3CCC3)c2=O)cc1 (stereo not drawn); 0

For every item below, please supply its IC50 or % Inhibition Factor Xa (30 µM).
1. N=C(N)c1ccc(CNC(=O)Cn2c(-c3ccc4c(c3)OCO4)c(Cl)nc(NCCc3ccccc3)c2=O)cc1
2. CCc1c(Cl)nc(NCCc2ccncc2)c(=O)n1CC(=O)NCc1ccc(C(=N)N)cc1
3. N=C(N)c1ccc(CNC(=O)Cn2c(-c3c(Cl)cccc3Cl)c(Cl)nc(NC3CCC3)c2=O)cc1
4. N=C(N)c1ccc(CNC(=O)Cn2c(-c3ccccc3)c(Cl)nc(NCc3cc(F)cc(F)c3)c2=O)cc1
5. N=C(N)c1ccc(CNC(=O)Cn2c(-c3ccc4c(c3)OCO4)c(Cl)nc(NCCc3ccncc3)c2=O)cc1
6. N=C(N)c1ccc(CNC(=O)Cn2c(-c3ccc(Cl)cc3)c(Cl)nc(NCCN3CCOCC3)c2=O)cc1
7. N=C(N)c1ccc(CNC(=O)C(Cc2ccccc2)n2c(-c3ccccc3)c(Cl)nc(NCCc3cccc(Cl)c3)c2=O)cc1 (stereo not drawn)

OUTPUT:
1: 22; 2: 0; 3: 0; 4: 4; 5: 24; 6: 34; 7: 0

For every item below, please supply its IC50 or % Inhibition Factor Xa (30 µM).
1. N=C(N)c1ccc(CNC(=O)Cn2c(-c3cccc(Cl)c3)c(Cl)nc(NCCN3CCOCC3)c2=O)cc1
2. N=C(N)c1ccc(CNC(=O)Cn2c(-c3cccc(N)c3)c(Cl)nc(NCCCN3CCCC3)c2=O)cc1
3. N=C(N)c1ccc(CNC(=O)Cn2c(-c3ccccc3)c(Cl)nc(NCc3cccc(OC(F)(F)F)c3)c2=O)cc1
4. N=C(N)c1ccc(CNC(=O)Cn2c(-c3cccc(Cl)c3)c(Cl)nc(NCCc3ccncc3)c2=O)cc1
5. N=C(N)c1ccc(CNC(=O)Cn2c(-c3ccc4c(c3)OCO4)c(Cl)nc(NCCc3ccc(Cl)cc3)c2=O)cc1
6. CC(CNc1nc(Cl)c(-c2cccc(N)c2)n(CC(=O)NCc2ccc(C(=N)N)cc2)c1=O)N(C)C (stereo not drawn)
7. C[C@H](C(=O)NCc1ccc(C(=N)N)cc1)n1c(-c2ccccc2)c(Cl)nc(NCc2ccccc2)c1=O

OUTPUT:
[8, 27, 3, 21, 15, 11, 0]

For every item below, please supply its IC50 or % Inhibition Factor Xa (30 µM).
1. N=C(N)c1ccc(CNC(=O)Cn2c(-c3ccc4c(c3)OCO4)c(Cl)nc(NCc3ccccc3)c2=O)cc1
2. N=C(N)c1ccc(CNC(=O)Cn2c(-c3cccc(Cl)c3)c(Cl)nc(NCCc3cccc(Cl)c3)c2=O)cc1
3. Cc1c(Cl)nc(NCCN2CCOCC2)c(=O)n1CC(=O)NCc1ccc(C(=N)N)cc1
4. CC1CCCC(Nc2nc(Cl)c(-c3ccccc3)n(CC(=O)NCc3ccc(C(=N)N)cc3)c2=O)C1C (stereo not drawn)
5. COc1ccc(CCNc2nc(Cl)c(-c3ccccc3)n(CC(=O)NCc3ccc(C(=N)N)cc3)c2=O)cc1OC
6. CCCNc1nc(Cl)c(-c2ccccc2)n(CC(=O)NCc2ccc(C(=N)N)cc2)c1=O

OUTPUT:
34
41
0
6
10
0
